Tested on: Colo205-LUC-TCF/LEF reporter gene
Assay: Colo205-LUC-TCF/LEF M1 reporter cell line luciferase inhibition
Format: cell-based
Conditions: 4 h, 4 hours incubation, firefly luciferase signal
pIC50: −log10 of the molar value.
Rule: pIC50 under 8 gives FALSE, otherwise TRUE.

compound	className
CN(C)c1nc(C(F)(F)F)ccc1Oc1ccc(CNc2nc3c4c(n2)N(C)[C@@](C)(CO)C(=O)N4CCC3)cn1 [Compound 15]	TRUE
CN1c2nc(NCc3ccc(Oc4ccc(C(F)(F)F)nc4CC#N)nc3)nc3c2N(CCC3)C(=O)[C@@H]1CO [Compound 17]	FALSE
CN(c1nc(C(F)(F)F)ccc1Oc1ccc(CNc2nc3c4c(n2)N(C)[C@@](C)(CO)C(=O)N4CCC3)cn1)C1CC1 [Compound 20]	TRUE

Exercise: Hi team, for CCc1nc(C(F)(F)F)ncc1Oc1ccc(CNc2nc3c4c(n2)N(C)[C@@](C)([C@H](C)O)C(=O)N4CCC3)cn1 [Compound 14] , is the recorded pIC50 at or above 8?
Solution: FALSE
